target: T1, human MSLN-R3-his protein (human, UniProt Q13421 487-598); experiment: ELISA on coated antigen, antibody 0.2 nM
T1 construct: it is put last here; also called human MSLN-R3 protein; hMSLN-R3-his; not shown: His tag
T1 sequence (Q13421 495-606): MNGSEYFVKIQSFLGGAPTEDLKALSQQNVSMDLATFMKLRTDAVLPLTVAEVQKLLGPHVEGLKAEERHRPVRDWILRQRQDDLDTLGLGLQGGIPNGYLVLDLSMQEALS
observable: OD450 (OD)
Unit OD implied. Number only.

The value of OD450 measured for the binder S009-F7.48.1 (antibody, human IgG1, kappa, V domains shown, Human-murine chimeric antibody, human IgG1 heavy and kappa light constant regions) VH: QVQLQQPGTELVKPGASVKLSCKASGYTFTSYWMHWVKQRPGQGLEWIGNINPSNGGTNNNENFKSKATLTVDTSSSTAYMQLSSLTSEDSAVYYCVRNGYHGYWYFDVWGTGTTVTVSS VL: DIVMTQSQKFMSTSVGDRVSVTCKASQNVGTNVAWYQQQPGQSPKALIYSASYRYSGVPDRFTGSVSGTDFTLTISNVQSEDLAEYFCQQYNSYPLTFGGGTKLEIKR turned out to be 0.94

The value of OD450 measured for the binder S009-F7.65.13 (antibody, human IgG1, kappa, V domains shown, Human-murine chimeric antibody, human IgG1 heavy and kappa light constant regions) VH: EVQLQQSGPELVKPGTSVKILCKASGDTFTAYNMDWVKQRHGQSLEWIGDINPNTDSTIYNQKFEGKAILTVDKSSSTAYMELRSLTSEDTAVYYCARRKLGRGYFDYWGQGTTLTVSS VL: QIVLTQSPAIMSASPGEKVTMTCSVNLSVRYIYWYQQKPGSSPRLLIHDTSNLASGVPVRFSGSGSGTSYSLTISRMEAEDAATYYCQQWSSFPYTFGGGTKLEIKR turned out to be 1.3

The value of OD450 measured for the binder S009-F7.44.20 (antibody, human IgG1, kappa, V domains shown, Human-murine chimeric antibody, human IgG1 heavy and kappa light constant regions) VH: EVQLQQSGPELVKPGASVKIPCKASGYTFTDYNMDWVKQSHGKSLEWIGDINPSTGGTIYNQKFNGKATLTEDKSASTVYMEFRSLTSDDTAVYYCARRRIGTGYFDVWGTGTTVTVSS VL: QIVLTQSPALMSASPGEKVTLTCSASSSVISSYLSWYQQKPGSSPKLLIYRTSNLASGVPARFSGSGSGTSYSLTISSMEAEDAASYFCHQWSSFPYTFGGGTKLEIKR turned out to be 2.2

The value of OD450 measured for the binder S009-F7.67.12 (antibody, human IgG1, kappa, V domains shown, Human-murine chimeric antibody, human IgG1 heavy and kappa light constant regions) VH: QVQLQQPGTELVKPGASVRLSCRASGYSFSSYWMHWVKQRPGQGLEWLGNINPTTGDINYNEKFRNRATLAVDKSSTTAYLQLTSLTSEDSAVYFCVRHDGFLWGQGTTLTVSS VL: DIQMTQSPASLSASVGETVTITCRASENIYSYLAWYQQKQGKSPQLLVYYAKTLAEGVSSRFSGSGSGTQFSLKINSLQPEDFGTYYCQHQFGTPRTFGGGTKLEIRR turned out to be 1.93

Switching to the query record.
The value of OD450 measured for the binder S009-F7.6.17 (antibody, human IgG1, kappa, V domains shown, Human-murine chimeric antibody, human IgG1 heavy and kappa light constant regions) VH: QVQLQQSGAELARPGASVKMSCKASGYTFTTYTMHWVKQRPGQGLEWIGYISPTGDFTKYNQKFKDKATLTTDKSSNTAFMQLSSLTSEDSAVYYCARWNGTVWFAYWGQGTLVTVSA VL: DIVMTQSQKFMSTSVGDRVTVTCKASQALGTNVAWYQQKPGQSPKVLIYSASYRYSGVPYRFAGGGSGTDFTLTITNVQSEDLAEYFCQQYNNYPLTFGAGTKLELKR turned out to be 2.64
